target: Tyrosine-protein phosphatase non-receptor type 1 (Homo sapiens); test: Inhibition of human recombinant PTP1B
Sequence (P18031 whole entry): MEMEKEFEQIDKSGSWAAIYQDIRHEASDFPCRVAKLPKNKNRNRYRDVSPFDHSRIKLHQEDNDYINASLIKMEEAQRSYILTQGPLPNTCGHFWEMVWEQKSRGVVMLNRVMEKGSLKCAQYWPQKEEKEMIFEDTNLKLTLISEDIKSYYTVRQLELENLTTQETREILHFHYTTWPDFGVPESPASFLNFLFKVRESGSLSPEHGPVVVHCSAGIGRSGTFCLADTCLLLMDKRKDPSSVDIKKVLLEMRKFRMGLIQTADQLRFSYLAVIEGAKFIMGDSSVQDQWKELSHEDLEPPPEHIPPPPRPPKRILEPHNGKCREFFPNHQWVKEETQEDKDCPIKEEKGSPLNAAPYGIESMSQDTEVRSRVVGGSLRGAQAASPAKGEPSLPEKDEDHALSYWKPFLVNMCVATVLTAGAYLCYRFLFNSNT
pIC50: −log10 of the molar value.
quantity_measured: pIC50

For orientation, consider the following solved cases.
CC(C)=CCC/C(C)=C\CC/C(C)=C\Cc1c(O)cc(O)cc1-c1cc2ccc(O)cc2o1 ... 5.57
CC(C)=CCc1c(O)cc(C(=O)[C@H]2[C@@H](c3c(O)ccc(C(=O)/C=C/c4ccc(O)cc4O)c3O)C=C(C)C[C@@H]2c2ccc(O)cc2O)cc1O ... 5.57
CC(C)=CCC/C(C)=C/Cc1c(O)ccc2cc(-c3cc(O)cc(O)c3CC=C(C)C)oc12 ... 5.37
CC(C)=CCC/C(C)=C/Cc1c(O)cc(O)cc1-c1cc2ccc(O)cc2o1 ... 5.04

[P] CC(C)=CCc1c(O)cc(C(=O)[C@H]2[C@@H](c3c(O)ccc(C(=O)/C=C/c4ccc(O)cc4)c3O)C=C(C)C[C@@H]2c2ccc(O)cc2O)cc1O
[Q] CC(C)=CCc1c(O)cc(C(=O)[C@H]2[C@@H](c3c(O)ccc(C(=O)/C=C/c4ccc(O)cc4)c3O)C=C(C)C[C@@H]2c2ccc(O)cc2)cc1O
Q: Which record shows the lower pIC50: the first, P , or the second, Q ? Mark your selection by writing its label.
A: Q
(Q: 4.86, P: 5.09)
